A collection of binders and their measured log10 of koff
Target: T1, recombinant human CTLA-4 (human, UniProt P16410 36-161, limits assumed)
T1 construct: also called CTLA4 antigen
T1 sequence (looked up): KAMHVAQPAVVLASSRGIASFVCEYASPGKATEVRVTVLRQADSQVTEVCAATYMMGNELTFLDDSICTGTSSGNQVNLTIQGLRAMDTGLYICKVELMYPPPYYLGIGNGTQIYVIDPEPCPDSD
Experiment: Octet (BLI), 1:1 binding model
Note: values are log10 of koff expressed in s⁻¹.

GBD008-hS004-5 (antibody, V domains shown, Humanized heavy chain-only antibody (VHH-Fc), no light chain) VH: EVQLVESGGGLVQPGGSLRLSCAASGRTFSSYDMGWFRQAPGKEREFVAAISWGGVNTYYADSVKGRFTISRDNAKNTLYLQMNSLRAEDTAVYYCARGSAPYSSSRSSAQETYAQWGQGTLVTVSS; -2.17
GBD008-S019 (antibody, V domains shown, Heavy chain-only antibody (VHH-Fc), no light chain; also called GBD008-5019) VH: QVQLVESGGGLVQPGGSLTLSCAASGFTFSSYTMAWYRQAPGKEREVVAGISRSGGTTNYGDSVKGRFTISRDNAKNTVYLQMNSLKPEDTAVYYCRAVSDYWGQGTQVTVSS; -4.36
GBD008-hS005-3-2 (antibody, V domains shown, Humanized heavy chain-only antibody (VHH-Fc), no light chain) VH: EVQLVESGGGLVQPGGSLRLSCAASGRTASSNAMAWFRQAPGKEREFVSAISATGGLTAYADSVKGRFTISRDNSKNTLYLQMNSLRAEDTAVYYCAVGRERWYLRHTENEYDYWGQGTLVTVSS; -3.94
GBD008-hS005-3 (antibody, V domains shown, Humanized heavy chain-only antibody (VHH-Fc), no light chain) VH: EVQLVESGGGLVQPGGSLRLSCAASGRTASSNAMAWVRQAPGKEREFVSAISATGGLTAYADSVKGRFTISRDNSKNTLYLQMNSLRAEDTAVYYCAVGRERWYLRHTENEYDYWGQGTLVTVSS; -4.00
GBD008-hS019-4 (antibody, V domains shown, Humanized heavy chain-only antibody (VHH-Fc), no light chain) VH: EVQLLESGGGLVQPGGSLRLSCAASGFTFSSYTMAWYRQAPGKEREVVAGISRSGGTTNYGDSVKGRFTISRDNSKNTLYLQMNSLRAEDTAVYYCRAVSDYWGQGTLVTVSS; -4.15

Now let's try a different one.
Looking up GBD008-S004 (antibody, V domains shown, Heavy chain-only antibody (VHH-Fc), no light chain) VH: EVQLVESGGGLVQAGGSLRLSCLASGRTFSSYDMGWFRQAPGKEREFVAAISWGGVNTYYADSVKGRFTISRDNAKNTVYLQMNSLKPEDTAVYYCARGSAPYSSSRSSAQETYAQWGQGTQVTVSS , I see its log10 of koff listed as -2.30

Data provenance is patent EP4628505A1.
